# measured-target: Gag-Pol polyprotein [588-1027]/[588-1147] (Human immunodeficiency virus 1)
The entries below are paired with their reported IC50.

Reference set, count: 2
O=C1Nc2c(Cl)cc(Cl)cc2C(C#CC2CC2)(C(F)(F)F)O1 (stereo not drawn)	> 2000 nM
O=C1Nc2c(cc(F)c(F)c2F)C(C#CC2CC2)(C(F)(F)F)O1 (stereo not drawn)	> 2000 nM

As a next step, examine the molecule that follows.
// query # returns recorded IC50 (system: Gag-Pol polyprotein [588-1027]/[588-1147] (Human immunodeficiency virus 1)) for O=C1Nc2ccc(-c3ccccc3)cc2C(C#CC2CC2)(C(F)(F)F)O1 (stereo not drawn)
// result > 2000 nM
